Origin of measurements: ChEMBL document CHEMBL3774351

# system_name: Ephrin type-B receptor 4 (Homo sapiens)
# Sequence (P54760 whole entry, the tested form may be a part): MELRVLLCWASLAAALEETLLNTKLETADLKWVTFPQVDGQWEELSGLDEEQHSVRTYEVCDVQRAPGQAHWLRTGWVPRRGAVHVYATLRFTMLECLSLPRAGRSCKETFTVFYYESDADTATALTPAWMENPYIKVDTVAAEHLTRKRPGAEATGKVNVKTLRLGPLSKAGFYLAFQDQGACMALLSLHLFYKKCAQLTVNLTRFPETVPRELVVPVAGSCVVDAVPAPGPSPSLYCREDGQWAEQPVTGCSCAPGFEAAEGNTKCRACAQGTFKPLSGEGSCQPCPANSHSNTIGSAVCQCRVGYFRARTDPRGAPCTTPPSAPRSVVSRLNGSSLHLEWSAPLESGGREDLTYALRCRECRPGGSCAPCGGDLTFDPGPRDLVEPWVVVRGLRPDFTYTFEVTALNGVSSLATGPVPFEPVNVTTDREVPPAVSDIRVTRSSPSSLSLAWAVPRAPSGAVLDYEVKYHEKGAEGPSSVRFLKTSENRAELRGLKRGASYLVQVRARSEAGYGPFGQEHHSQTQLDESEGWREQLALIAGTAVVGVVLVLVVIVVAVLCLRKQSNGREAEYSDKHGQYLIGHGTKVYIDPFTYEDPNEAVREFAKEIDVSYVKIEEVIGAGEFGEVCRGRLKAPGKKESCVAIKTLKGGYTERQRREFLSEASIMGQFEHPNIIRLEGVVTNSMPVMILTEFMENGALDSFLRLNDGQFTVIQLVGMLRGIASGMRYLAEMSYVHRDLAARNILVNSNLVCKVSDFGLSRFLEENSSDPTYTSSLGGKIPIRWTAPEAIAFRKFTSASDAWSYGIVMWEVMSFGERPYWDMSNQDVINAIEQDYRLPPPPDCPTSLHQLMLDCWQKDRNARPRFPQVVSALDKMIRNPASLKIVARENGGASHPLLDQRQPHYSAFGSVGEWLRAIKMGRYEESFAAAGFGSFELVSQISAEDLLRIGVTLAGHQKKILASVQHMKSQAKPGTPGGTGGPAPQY
# measurement_protocol: Inhibition of N-terminal GST-fused His6-tagged human recombinant EphB4
quantity_measured: pIC50
Answers are plain numbers, as −log10 of the molar value.

Form: Entry = `COc1cccc(-n2c(N)c(C(N)=O)c3nc4ccccc4nc32)c1` | System = Ephrin type-B receptor 4 (Homo sapiens) | pIC50 = ____ 6.52

---

# measurement_protocol: Half life in human liver microsomes at 0.1 uM up to 60 mins by HPLC-MS/MS analysis
quantity_measured: half-life at 1 h, 0.1 µM

I would be grateful if you could share the reported half-life at 1 h, 0.1 µM for CC(C)NCC(O)COc1cccc2ccccc12 (stereo unspecified) . > 1 h
